# Run Description: HT1080 cell viability loss – fluorescence readout (AID 620);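 note: cells exposed to compound overnight then 4 h with Alamar Blue; 0% = vehicle DMSO and 100% = killing control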
# Condition Description: at 10 µM
The whole screen tested about 87,000 compounds, of which about 360 (0.41%) were called active. Cut-off read from the data, not from the text of the source: active = cytotoxicity above about 50%; inactive = the rest. This is one part of a sample in which actives are shown more often than they occur.
Labels: label 1 = active, label 0 = inactive

Molecule	Category
Cc1ccc(S(=O)(=O)N2C(=S)SCC2(C)C)cc1	label 0
CCN(CC)c1ccc(NC(=O)c2c(OC)cccc2OC)c(C)c1	label 0
CCC(C(=O)NC1CCCC1)N(Cc1cccs1)C(=O)Cn1nnc(-c2ccc(OC)c(OC)c2)n1 (centres undefined)	label 0
COc1ccccc1NC1=NC(c2ccc(Cl)cc2)N=C(N)N1 (centres undefined)	label 1
COc1ccc(OCCCC(=O)Nc2nncs2)cc1	label 0
CC1=CC(C)(C)N(S(=O)(=O)c2ccc(C)cc2)c2ccccc21	label 1
O=C(COC(=O)c1cnccn1)NCCc1ccccc1	label 0
COc1ccccc1NC1=NC(C)(C)N=C(N)N1	label 0
COc1ccc(-n2nnnc2-c2ccccc2)cc1	label 1
CC1=CC(C)(C)N(C(=O)C(C)N2C(=O)c3ccccc3C2=O)c2ccc(C)cc21 (centres undefined)	label 0
CCN(CC)c1ccc(NC(=O)c2cccc(OC)c2)c(C)c1	label 0
COc1ccccc1Oc1ccc(S(=O)(=O)N2CCOCC2)cc1S(=O)(=O)N1CCOCC1	label 0
COC(=O)C1CC(=O)N(CCc2c[nH]c3ccccc23)C1 (centres undefined)	label 0
CCc1cccc(CC)c1NC(=O)CN1CC(C)SC1=NC1CCCCC1 (centres undefined)	label 0
CC(=O)Oc1ccc(C)cc1-n1nc2ccccc2n1	label 0
COc1ccc(-n2nnnc2-c2cccc(OC)c2)cc1	label 0
Cc1ccc(Oc2ccc(S(=O)(=O)N3CCOCC3)cc2C(N)=O)c(-n2nc3ccccc3n2)c1	label 1
COc1ccc(-n2nnnc2-c2cccnc2)cc1	label 0
CCNc1nc(NCC)nc(N2CC(=O)N(CC(=O)OCC)C2=N)n1	label 0
Cc1ccc(NC(=O)CN2CC(C)SC2=NC2CCCCC2)cc1 (centres undefined)	label 1
CC1CCCN(S(=O)(=O)c2ccc(NC(=O)CN3CCN(C)CC3)cc2)C1 (centres undefined)	label 0
COC(=O)NCC(c1cccnc1)N1CCOCC1 (centres undefined)	label 0
COc1ccccc1NS(=O)(=O)c1ccc(Cl)cc1	label 0
Fc1ccc(-c2nnc(CN3CCN(c4ncc(C(F)(F)F)cc4Cl)CC3)o2)cc1	label 0

====

# Run Description: HT1080 cell viability loss – fluorescence readout (AID 620);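 note: cells exposed to compound overnight then 4 h with Alamar Blue; 0% = vehicle DMSO and 100% = killing control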
# Condition Description: at 10 µM, stronger effect = higher value
Hit rate of the full screen: of about 87,000 compounds, about 360 (0.41%) were called active. Only a selection was taken, and actives are over-represented in it overall.

Molecule	cytotoxicity
COc1ccc(CCN(C)C(=O)N2CCOCC2)cc1OC	-5.8% (inactive)
COc1ccc(-c2n[nH]c(C)c2-c2ccc(Cl)cc2)c(O)c1	-10.8% (inactive)
CC(C(=O)Oc1ccc2c(c1)OCO2)N1C(=O)c2ccccc2C1=O (stereo unspecified)	3.4% (inactive)
O=C(NCC(c1cccnc1)N1CCN(c2ccccc2F)CC1)c1ccccc1 (stereo unspecified)	-1.1% (inactive)
CS(=O)(=O)N1CCN(c2ccccc2NC(=O)c2ccc(-c3ccc(Cl)cc3Cl)o2)CC1	6% (inactive)
C=C(C)COc1ccc(-c2n[nH]c(C)c2-c2ccc(OC)cc2)c(O)c1	-14.1% (inactive)
CCOc1ccccc1-n1c(SCC(N)=O)nnc1-c1cccnc1	7.9% (inactive)
COc1ccc(C(=O)SC2=NCCS2)cc1	-11.1% (inactive)
CN1C(=O)c2ccc(S(=O)(=O)c3ccc(C(=O)O)cc3)cc2C1=O	3.3% (inactive)
CCCCCOc1ccc(C(=O)C(c2ccccc2)N2CCOCC2)cc1 (stereo unspecified)	-2% (inactive)
CCCn1c(=O)c2ccccc2n2c(SCC(=O)c3cc(C)n(CC4CCCO4)c3C)nnc12 (stereo unspecified)	6.6% (inactive)
